Origin of measurements: patent US5420339A

assay: APCC in vivo screen: blood cholesterol in rats on PCC diet with cholic acid; design: species or system male Sprague-Dawley rats; details: single dosing at 4 PM, PCC diet overnight with 1% or 0.5% cholic acid, sacrificed 8 AM
Would you mind telling me the reported APCC % Change TC of each entry?
Answers are plain numbers, in %.

Previously resolved entries follow.
COMPOUND: CCCCCCCCCCCCCCC(C)OC(=O)C(C(=O)Nc1c(C(C)C)cccc1C(C)C)c1ccccc1 (racemic)
APCC % Change TC (%): -37

COMPOUND: CCCCCCCCCCCCC(C)OC(=O)C(C(=O)Nc1c(OC)cc(OC)cc1OC)c1ccccc1 (racemic)
APCC % Change TC (%): -59

COMPOUND: CCCCCCCCOC(=O)C(C(=O)Nc1c(C(C)C)cccc1C(C)C)c1ccccc1 (racemic)
APCC % Change TC (%): -56

// next entry
Q: Give APCC % Change TC for CCCCCCCCCOC(=O)C(C(=O)Nc1c(C(C)C)cccc1C(C)C)c1ccccc1 (racemic)
Result: -67

###

Would you mind telling me the reported APCC % Change TC of each entry?
experiment: APCC in vivo screen: blood cholesterol in rats on PCC diet with cholic acid; design: species or system male Sprague-Dawley rats; conditions: single dosing at 4 PM, PCC diet overnight with 1% or 0.5% cholic acid, sacrificed 8 AM
Answers are plain numbers, in %.

Previously resolved entries follow.
MOLECULE: CCCCCCCCCCCCCCCCCCOC(=O)C(C(=O)Nc1c(C(C)C)cccc1C(C)C)c1ccccc1 (racemic) [Example 14]
READOUT UNITS: %
APCC % Change TC: -25

MOLECULE: CCCCCCCCCCCCOC(=O)C(C(=O)Nc1c(C(C)C)cccc1C(C)C)c1ccccc1 (racemic) [Example 3]
READOUT UNITS: %
APCC % Change TC: -63

// next entry
Q: Give APCC % Change TC for CCCCCCCCCCCCOC(=O)C(C(=O)Nc1c(OC)cc(OC)cc1OC)c1ccccc1 (racemic) [Example 18]
Result: -51

###

assay: APCC in vivo screen: blood cholesterol in rats on PCC diet with cholic acid; set-up: species or system male Sprague-Dawley rats; conditions: single dosing at 4 PM, PCC diet overnight with 1% or 0.5% cholic acid, sacrificed 8 AM
Parameter threshold = -40%. Response is Condition met when APCC % Change TC meets or exceeds it, else Condition not met.

Take a look at these entries with their results.
COMPOUND: CCCCCCCOC(=O)C(C(=O)Nc1c(C(C)C)cccc1C(C)C)c1ccccc1 (racemic) [Example 8]
CLASS NAME: Condition not met

COMPOUND: CCCCCCCCCCCCC(C)(C)OC(=O)C(C(=O)Nc1c(C(C)C)cccc1C(C)C)c1ccccc1 (racemic) [Example 12]
CLASS NAME: Condition met

COMPOUND: CCCCCCCCCCCCCCCCOC(=O)C(C(=O)Nc1c(C(C)C)cccc1C(C)C)c1ccccc1 (racemic) [Example 13]
CLASS NAME: Condition met

COMPOUND: CCCCCC(C)OC(=O)C(C(=O)Nc1c(C(C)C)cccc1C(C)C)c1ccccc1 (racemic) [Example 7]
CLASS NAME: Condition not met

Q: Quick check, APCC % Change TC >= -40%? CCCCCCCCCCOC(=O)C(C(=O)Nc1c(C(C)C)cccc1C(C)C)c1ccccc1 (racemic) [Example 6]
Result: Condition not met

Q: Quick check, APCC % Change TC >= -40%? CCCCCCCCCCCCCCOC(=O)C(C(=O)Nc1c(C(C)C)cccc1C(C)C)c1ccccc1 (racemic) [Example 5]
Result: Condition not met

Q: Quick check, APCC % Change TC >= -40%? CCCCCCCCCCCCOC(=O)C(C(=O)Nc1c(C(C)C)cccc1C(C)C)c1ccccn1 (racemic) [Example 19]
Result: Condition not met
